# assay_target: kinase domain of IRE1 alpha (His-tagged kinase dead construct KR, AA G547-L977, D688N) (Homo sapiens (Human), UniProt O75460, D688N)
# Sequence (O75460 547-977 D688N): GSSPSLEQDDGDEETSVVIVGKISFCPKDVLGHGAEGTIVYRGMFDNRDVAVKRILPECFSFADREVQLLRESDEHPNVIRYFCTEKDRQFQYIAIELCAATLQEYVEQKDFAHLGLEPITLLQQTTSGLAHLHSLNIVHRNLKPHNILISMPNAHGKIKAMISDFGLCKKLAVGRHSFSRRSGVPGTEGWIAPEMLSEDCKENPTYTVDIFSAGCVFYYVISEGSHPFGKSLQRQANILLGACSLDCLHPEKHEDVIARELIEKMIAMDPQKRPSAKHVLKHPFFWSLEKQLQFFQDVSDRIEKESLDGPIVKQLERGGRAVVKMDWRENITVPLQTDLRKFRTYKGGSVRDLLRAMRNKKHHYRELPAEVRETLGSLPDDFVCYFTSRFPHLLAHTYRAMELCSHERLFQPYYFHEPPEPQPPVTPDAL
# test_details: IRE1α TR-FRET competition binding assay
# condition_info: competition with Kinase Tracer 236, 0.1 μM; one hour at room temperature
pIC50: −log10 of the molar value. Counter-ions that a name gives are not always drawn.
reported_property: pIC50

Cc1c(Oc2ncccc2-c2ccnc(N[C@H]3CCCNC3)n2)cc(F)c(NS(=O)(=O)Cc2ccccc2)c1C [Compound 175]	8.28
O=S(=O)(Cc1ccc(C(F)F)cc1)Nc1c(F)cc(Oc2ncccc2-c2ccnc(N[C@@H]3CNC[C@@H](F)C3)n2)c(F)c1F [Compound 371]	9.52
O=S(=O)(Cc1ccccc1)Nc1ccc(Oc2ncccc2-c2ccnc(N[C@H]3CCCNC3)n2)cc1C(F)(F)F [Compound 113]	7.96
CC(F)(F)CCS(=O)(=O)Nc1ccc(Oc2ncccc2-c2ccnc(N[C@H]3CCCNC3)n2)c(F)c1F [Compound 149, hydrochloride]	8.06

A. N[C@H]1CC[C@H](Nc2nccc(-c3cccnc3Oc3c(F)cc(NS(=O)(=O)c4ccccc4Cl)cc3Cl)n2)CC1 [Compound 104, hydrochloride]
B. Cn1cnc(S(=O)(=O)Nc2ccc(Oc3ncccc3-c3ccnc(N[C@H]4CCCNC4)n3)c(F)c2F)c1 [Compound 221]
Ask: Between A and B , which one shows the smaller pIC50 number? Return value: the label identifying the chosen record.
Result: B
(B: 6.42, A: 8.23)

====

# assay_target: kinase domain of IRE1 alpha (His-tagged kinase dead construct KR, AA G547-L977, D688N) (Homo sapiens (Human), UniProt O75460, D688N)
# test_details: IRE1α TR-FRET competition binding assay
# condition_info: competition with Kinase Tracer 236, 0.1 μM; one hour at room temperature
pIC50: −log10 of the molar value. Counter-ions that a name gives are not always drawn.
reported_property: pIC50

These recorded examples may help you get a feel for the data.
Cc1cc(Oc2ncccc2-c2ccnc(N[C@H]3CCCNC3)n2)c(F)c(F)c1NS(=O)(=O)Cc1ccccc1	8.27
Cc1ccc(CS(=O)(=O)Nc2c(F)cc(Oc3ncccc3-c3ccnc(N[C@@H]4CNC[C@@H](F)C4)n3)c(F)c2F)cc1	9.40
COCCN(C)[C@H]1CC[C@H](Nc2nccc(-c3cccnc3Oc3cc(F)c(NS(=O)(=O)C4CCCCC4)c(F)c3F)n2)CC1	9.38

I. Cc1ccccc1CS(=O)(=O)Nc1c(F)cc(Oc2ncccc2-c2ccnc(N[C@@H]3CNC[C@@](C)(F)C3)n2)c(F)c1F
II. O=S(=O)(Nc1ccc(Oc2ncccc2-c2ccnc(N[C@H]3CCCNC3)n2)c(F)c1F)c1cc(F)cc(F)c1
III. O=S(=O)(CCC(F)(F)F)Nc1ccc(Oc2ncccc2-c2ccnc(N[C@H]3CCCNC3)n2)cc1F [Compound 105, hydrochloride]
IV. O=S(=O)(Nc1c(F)cc(Oc2ncccc2-c2ccnc(N[C@@H]3CNC[C@@H](F)C3)n2)c(F)c1F)C1CCCCC1
V. O=S(=O)(Cc1ccccc1F)Nc1ccc(Oc2ncccc2-c2ccnc(N[C@H]3CCCNC3)n2)c(F)c1F [Compound 146, hydrochloride]
Ask: List items by pIC50 in falling order. Lab note: final answer is the ordered label list.
Result: IV, I, V, II, III

1. O=S(=O)(Cc1ccccc1)Nc1c(F)cc(Oc2ncccc2-c2ccnc(N[C@@H]3CNC[C@H](CF)C3)n2)c(F)c1F
2. O=S(=O)(Nc1c(F)cc(Oc2ncccc2-c2ccnc(N[C@@H]3CNC[C@@H](F)C3)n2)c(F)c1F)N1CCCC1
3. O=S(=O)(Cc1ccccc1)Nc1ccc(Oc2ncccc2-c2ccnc(NC34CNCC3C4)n2)c(F)c1F (single isomer, unassigned) [Compound 186]
Ask: Please order the records by their reported pIC50, lowest number first. Lab note: final answer is the ordered label list.
Result: 3, 2, 1
